Cited source for all entries: the supplement of paper PMC9112550

Exercise: state measured shrunken log2 fold change for each of the sequences provided.
- System: Escherichia coli TOP10
- test: shrunken log2 fold change of peptide-encoding DNA abundance (4.5 h post-induction vs induction); higher = less antimicrobial activity (less host growth inhibition)
- conditionParameters: time post-induction: 4.5 h; library: site-saturation at positions 5, 18, 19, 20
Keep it simple and answer with nothing but the number.

Can you share its shrunken log2 fold change? I mean this sequence: RRIRQRPPRLPRPRPRPNQWPRP 0.0886

For the sequence shown here, RRIRRRPPRLPRPRPRPHAWPRP , give the reported shrunken log2 fold change. 0.438

Could you share which shrunken log2 fold change value was measured for RRIRERPPRLPRPRPRPGDPPRP ? 0.103

For the sequence shown here, RRIRDRPPRLPRPRPRPHDRPRP , give the reported shrunken log2 fold change. -0.00543

If you can, please state the reported shrunken log2 fold change value of RRIRHRPPRLPRPRPRPGTQPRP . -0.128

# query: shrunken log2 fold change of entry RRIRGRPPRLPRPRPRPLEKPRP 0.725

Recorded shrunken log2 fold change for RRIRARPPRLPRPRPRPGMKPRP , please? 0.186

May I ask what shrunken log2 fold change has been recorded for RRIRGRPPRLPRPRPRPEGKPRP ? 0.574

Which shrunken log2 fold change is reported for this sequence? RRIRFRPPRLPRPRPRPNHLPRP -1.06

Sample RRIRIRPPRLPRPRPRPMNFPRP — what was its shrunken log2 fold change? -0.0453

Value lookup for shrunken log2 fold change; key = RRIRDRPPRLPRPRPRPETEPRP -0.0111

Looking for the measured shrunken log2 fold change of RRIRNRPPRLPRPRPRPVLMPRP , can you help? -0.14

What measured shrunken log2 fold change goes with RRIRNRPPRLPRPRPRPKMKPRP ? -0.286

Form field: reported shrunken log2 fold change of RRIRMRPPRLPRPRPRPQHLPRP -0.344

Bench note: what shrunken log2 fold change did RRIRFRPPRLPRPRPRPKFKPRP show? -0.238

Record request: shrunken log2 fold change value, item RRIRGRPPRLPRPRPRPENPPRP 0.842

For RRIRRRPPRLPRPRPRPEDYPRP , what is its reported shrunken log2 fold change? 0.252

Report shrunken log2 fold change for RRIRHRPPRLPRPRPRPNQVPRP please. 0.0339

I'd like to know its shrunken log2 fold change. The sequence in question is RRIRNRPPRLPRPRPRPMNFPRP -0.0203

Requested field: shrunken log2 fold change. Item: RRIRWRPPRLPRPRPRPDYHPRP -0.219

If you can, please state the reported shrunken log2 fold change value of RRIRIRPPRLPRPRPRPIDSPRP . 0.0203

What shrunken log2 fold change value was documented for this sequence, RRIRTRPPRLPRPRPRPPVSPRP ? 0.147

// shrunken log2 fold change lookup, key: RRIRFRPPRLPRPRPRPRCQPRP 0.24

Fill blank: measured shrunken log2 fold change of the sequence RRIRCRPPRLPRPRPRPVDNPRP is ____. -0.00721

Looking for the measured shrunken log2 fold change of RRIRCRPPRLPRPRPRPDIVPRP , can you help? -0.0875

Name the recorded shrunken log2 fold change for RRIRTRPPRLPRPRPRPKGGPRP . 0.279

Would you kindly share the measured shrunken log2 fold change for RRIRVRPPRLPRPRPRPLYEPRP ? -0.168

Requested field: shrunken log2 fold change. Item: RRIRARPPRLPRPRPRPWIPPRP -0.161

Give the measured shrunken log2 fold change of RRIRWRPPRLPRPRPRPIVYPRP . -0.0137

Need shrunken log2 fold change of RRIRQRPPRLPRPRPRPSEDPRP , thanks. -0.0593

Report shrunken log2 fold change for RRIRTRPPRLPRPRPRPDTNPRP please. -0.558

Please report the recorded shrunken log2 fold change for RRIRDRPPRLPRPRPRPKDHPRP . 0.0158

* * *

- System: Escherichia coli TOP10
- test: shrunken log2 fold change of peptide-encoding DNA abundance (4.5 h post-induction vs induction); higher = less antimicrobial activity (less host growth inhibition)
- conditionParameters: time post-induction: 4.5 h; library: site-saturation at positions 5, 18, 19, 20
So I've got a bunch of sequences here, and I need their shrunken log2 fold change values.
Number only, no unit.

Look up shrunken log2 fold change for this sequence: RRIRLRPPRLPRPRPRPEDTPRP -0.00686

For the sequence shown here, RRIRQRPPRLPRPRPRPTWIPRP , give the reported shrunken log2 fold change. -0.057

Reported shrunken log2 fold change for RRIRGRPPRLPRPRPRPLASPRP : what is it? 0.894

Any idea what shrunken log2 fold change was measured for RRIRFRPPRLPRPRPRPVHTPRP ? -0.0075

Please report the recorded shrunken log2 fold change for RRIRGRPPRLPRPRPRPSALPRP . 1.38

# input sequence: RRIRDRPPRLPRPRPRPQKWPRP ; wanted: its shrunken log2 fold change 0.15

Request the reported shrunken log2 fold change associated with RRIRERPPRLPRPRPRPNIGPRP -0.00187

Given RRIRHRPPRLPRPRPRPMISPRP , state its recorded shrunken log2 fold change. -0.442

Name the reported shrunken log2 fold change value associated with the sequence RRIRHRPPRLPRPRPRPDWDPRP -0.0204

// returns reported shrunken log2 fold change for input RRIRSRPPRLPRPRPRPIIAPRP -0.0683

# get_value(readout='shrunken log2 fold change', item= RRIRFRPPRLPRPRPRPAMYPRP ) -0.246

Bench note: what shrunken log2 fold change did RRIRSRPPRLPRPRPRPWNDPRP show? -0.303

Which value of shrunken log2 fold change has been reported for RRIRNRPPRLPRPRPRPFATPRP in the records? -0.101

Need shrunken log2 fold change of RRIRARPPRLPRPRPRPMPAPRP , thanks. 0.722

Look at this sequence and give its reported shrunken log2 fold change. RRIRLRPPRLPRPRPRPCSQPRP -0.0964

Which shrunken log2 fold change is reported for this sequence? RRIRVRPPRLPRPRPRPYKAPRP -0.0443

For RRIRQRPPRLPRPRPRPLTDPRP , what is its reported shrunken log2 fold change? 0.132

# query: shrunken log2 fold change of entry RRIRVRPPRLPRPRPRPHMNPRP -0.499

Please look up its shrunken log2 fold change: RRIRERPPRLPRPRPRPMCPPRP -0.0308

So what's the measured shrunken log2 fold change for this one? RRIRDRPPRLPRPRPRPPSVPRP 0.258

shrunken log2 fold change for RRIRFRPPRLPRPRPRPWFTPRP ? -0.574

Please look up its shrunken log2 fold change: RRIRQRPPRLPRPRPRPICVPRP -0.307

Requested field: shrunken log2 fold change. Item: RRIRSRPPRLPRPRPRPFERPRP -0.00192

Report shrunken log2 fold change for RRIRYRPPRLPRPRPRPTCYPRP please. -0.582

I would be grateful if you could share the reported shrunken log2 fold change for RRIRLRPPRLPRPRPRPAMPPRP . 0.234

Please report the recorded shrunken log2 fold change for RRIRKRPPRLPRPRPRPHHMPRP . -0.0738

shrunken log2 fold change lookup needed for RRIRMRPPRLPRPRPRPMYMPRP , thanks. 0.0751

Quick one: shrunken log2 fold change of RRIRNRPPRLPRPRPRPDAMPRP ? -0.0496

Any idea what shrunken log2 fold change was measured for RRIRNRPPRLPRPRPRPHEMPRP ? -0.33

I'd like to know its shrunken log2 fold change. The sequence in question is RRIRERPPRLPRPRPRPVIWPRP 0.254

Need shrunken log2 fold change of RRIRERPPRLPRPRPRPHLQPRP , thanks. -0.206

# query: shrunken log2 fold change of entry RRIRVRPPRLPRPRPRPKVFPRP -0.0519

* * *

- System: Escherichia coli TOP10;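 note: peptides expressed intracellularly from a pBAD plasmid library in pooled LB shake-flask culture, induced with 0.3% L-arabinose, DNA abundance read by NGS, three biological replicates, DESeq2 with apeglm shrinkage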
- test: shrunken log2 fold change of peptide-encoding DNA abundance (4.5 h post-induction vs induction); higher = less antimicrobial activity (less host growth inhibition)
- conditionParameters: time post-induction: 4.5 h; library: site-saturation at positions 5, 18, 19, 20
# shrunken log2 fold change >= -0.1 gives Y, anything below gives N

Quick check, shrunken log2 fold change >= -0.1? RRIRGRPPRLPRPRPRPRDAPRP Y

Threshold query (shrunken log2 fold change >= -0.1) on RRIRYRPPRLPRPRPRPKAGPRP N

Is reported shrunken log2 fold change greater than or equal to -0.1 here: RRIRCRPPRLPRPRPRPYVQPRP N

Decide: is the reported value of shrunken log2 fold change for RRIRHRPPRLPRPRPRPGRFPRP equal to or greater than -0.1? Y

API: above_or_equal(metric=shrunken log2 fold change, cutoff=-0.1) for item RRIRFRPPRLPRPRPRPSGSPRP N

Threshold query (shrunken log2 fold change >= -0.1) on RRIRRRPPRLPRPRPRPQYIPRP Y

For this sequence, is measured shrunken log2 fold change -0.1 or higher? RRIRMRPPRLPRPRPRPKDCPRP Y

For this sequence, is measured shrunken log2 fold change -0.1 or higher? RRIRFRPPRLPRPRPRPWAAPRP Y
